tested_target: human recombinant USP30 (Homo sapiens (Human))
measurement_notes: Ubiquitin-Rhodamine 110 Assay for USP30 Activity
setup_conditions: 0.2 nM USP30, 25 nM Ub-Rh110, 30 min preincubation
pIC50: −log10 of the molar value.
Field: pIC50. Provide a value for each of the compounds that follow.

Provide pIC50 value for the following compound: N#CN1C[C@H](NC(=O)c2cc(-c3ccccc3Oc3ccccc3)[nH]n2)CC12COC2 (single isomer, unassigned) [Compound 9-b] < 6.00

Provide pIC50 value for the following compound: N#CN1C[C@@H](NC(=O)c2cc(-c3ccccc3Oc3ccccc3)[nH]n2)C2(CC2)C1 (single isomer, unassigned) [Compound 5-a] > 7.00

Provide pIC50 value for the following compound: N#CN1C[C@@H]2CC[C@]2(NC(=O)c2cc(-c3ccccc3Oc3ccccc3)[nH]n2)C1 (stereo in doubt) [Compound 6-a] > 7.00

###

tested_target: human recombinant USP30 (Homo sapiens (Human), UniProt Q70CQ3)
Sequence (Q70CQ3 whole entry): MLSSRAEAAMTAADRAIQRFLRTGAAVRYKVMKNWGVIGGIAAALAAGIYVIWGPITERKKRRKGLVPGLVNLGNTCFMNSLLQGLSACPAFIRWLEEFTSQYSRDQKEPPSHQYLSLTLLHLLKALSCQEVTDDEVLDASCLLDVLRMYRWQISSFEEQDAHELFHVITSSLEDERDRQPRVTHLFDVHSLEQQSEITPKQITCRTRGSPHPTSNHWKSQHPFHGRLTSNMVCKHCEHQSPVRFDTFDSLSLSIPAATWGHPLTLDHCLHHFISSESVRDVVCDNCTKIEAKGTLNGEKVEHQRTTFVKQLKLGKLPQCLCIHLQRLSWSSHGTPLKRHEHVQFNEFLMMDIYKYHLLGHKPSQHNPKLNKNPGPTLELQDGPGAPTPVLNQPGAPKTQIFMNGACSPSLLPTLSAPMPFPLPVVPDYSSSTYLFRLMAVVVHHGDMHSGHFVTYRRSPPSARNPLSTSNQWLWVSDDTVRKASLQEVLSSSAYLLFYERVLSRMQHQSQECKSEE
measurement_notes: Ubiquitin-Rhodamine 110 Assay for USP30 Activity
setup_conditions: 0.2 nM USP30, 25 nM Ub-Rh110, 30 min preincubation
Experimental: The assay was performed in a final volume of 9 μL in assay buffer containing 20 mM Tris-HCl (pH 8.0, (IM Tris-HCl, pH 8.0 solution; Corning 46-031-CM)), 1 mM GSH (L-glutathione reduced, Sigma-Aldrich, G4251-100G), 0.03% BGG (0.22 μM filtered, Sigma, G7516-25G), and 0.01% Triton X-100 (Sigma, T9284-10L). […]
recorded_endpoint: IC50

Provide IC50 value for the following compound: N#CN1C[C@H]2CC[C@@]2(NC(=O)c2cc(-c3ccccc3Oc3ccccc3)[nH]n2)C1 (stereo in doubt) 100 to 1000 nM

Provide IC50 value for the following compound: N#CN1C[C@@H]2C[C@H]1CCN2C(=O)c1cc(-c2ccccc2Oc2ccccc2)[nH]n1 (single isomer, unassigned) 100 to 1000 nM

Provide IC50 value for the following compound: N#CN1CC2CCC1C2NC(=O)c1cc(-c2ccccc2Oc2ccccc2)[nH]n1 (single isomer, unassigned) [Compound 2-a] < 100 nM

Provide IC50 value for the following compound: N#CN1C[C@H]2CCC[C@@]2(NC(=O)c2cc(-c3ccccc3Oc3ccccc3)[nH]n2)C1 (single isomer, unassigned) < 100 nM

Provide IC50 value for the following compound: N#CN1C[C@@H]2C[C@H]1CN2C(=O)c1cc(-c2ccccc2Oc2ccccc2)[nH]n1 (single isomer, unassigned) 100 to 1000 nM

Provide IC50 value for the following compound: N#CN1C[C@H]2C[C@@H]1[C@H]2NC(=O)c1cc(-c2ccccc2Oc2ccccc2)[nH]n1 (single isomer, unassigned) 100 to 1000 nM

###

tested_target: human recombinant USP30 (Homo sapiens (Human))
measurement_notes: Ubiquitin-Rhodamine 110 Assay for USP30 Activity
setup_conditions: 0.2 nM USP30, 25 nM Ub-Rh110, 30 min preincubation
recorded_endpoint: IC50

Provide IC50 value for the following compound: N#CN1C[C@@H]2CCC[C@]2(NC(=O)c2cc(-c3ccccc3Oc3ccccc3)[nH]n2)C1 (single isomer, unassigned) [Compound 20-a] < 100 nM

Provide IC50 value for the following compound: N#CN1C[C@@H](NC(=O)c2cc(-c3ccccc3Oc3ccccc3)[nH]n2)CC12COC2 (single isomer, unassigned) [Compound 9-a] > 1000 nM

Provide IC50 value for the following compound: N#CN1CC2CCC1C2NC(=O)c1cc(-c2ccccc2Oc2ccccc2)[nH]n1 (single isomer, unassigned) [Compound 2-b] > 1000 nM

Provide IC50 value for the following compound: N#CN1C[C@@H]2C[C@H]1[C@@H]2NC(=O)c1cc(-c2ccccc2Oc2ccccc2)[nH]n1 (single isomer, unassigned) [Compound 8-b] 100 to 1000 nM

Provide IC50 value for the following compound: N#CN1C[C@H]2C[C@@H]1CCN2C(=O)c1cc(-c2ccccc2Oc2ccccc2)[nH]n1 (single isomer, unassigned) [Compound 1b] < 100 nM

Provide IC50 value for the following compound: N#CN1C[C@@H]2C[C@]2(NC(=O)c2cc(-c3ccccc3Oc3ccccc3)[nH]n2)C1 (single isomer, unassigned) [Compound 3-b] < 100 nM

Provide IC50 value for the following compound: N#CN1C[C@H]2C[C@@H]1CN2C(=O)c1cc(-c2ccccc2Oc2ccccc2)[nH]n1 (single isomer, unassigned) [Compound 4-b] 100 to 1000 nM

Provide IC50 value for the following compound: N#CN1C[C@H]2C[C@@]2(NC(=O)c2cc(-c3ccccc3Oc3ccccc3)[nH]n2)C1 (single isomer, unassigned) [Compound 3-a] 100 to 1000 nM

Provide IC50 value for the following compound: N#CN1C[C@H](NC(=O)c2cc(-c3ccccc3Oc3ccccc3)[nH]n2)C2(CC2)C1 (single isomer, unassigned) [Compound 5-b] 100 to 1000 nM
